# Test system: SORBI (Andropogon sorghum, common sorgum)
# measurement-notes: Weed control test, foliage treatment (Test Example 1, Table 7)
# Format: in vivo
# applied-conditions: Sorghum bicolor, foliar, 0.2 kg/ha, read-out: Plant damage (herbicidal activity), visually evaluated, SORBI
endpoint-label: pest or weed control at 200 g/ha (%)
Numbers only, in %.

Guide cases for pest or weed control at 200 g/ha, answers given:
C[C@@H](Oc1ccc(C(F)=C(c2ccccc2)C(F)(F)F)cc1)C(=O)Nc1ccccc1F	0
C[C@@H](Oc1ccc(OC(F)=Cc2ccccc2)cc1)C(=O)N(C)c1ccccc1F	20

Next:
[in] Can you share its pest or weed control at 200 g/ha? I mean this molecule: Cc1cc(NC(=O)[C@@H](C)Oc2ccc(Oc3ccc(C#N)cc3F)cc2)n(C)n1
[out] 50
